From: ChEMBL document CHEMBL4308852

readout.type: Kd

IN: Find Kd for C=CCCn1cc(-c2cc(C(=O)N3CCOCC3)cc3c2ncn3C)c2cc[nH]c2c1=O on Chromatin remodeling regulator CECR2 (Homo sapiens) and write it down.
OUT: 1200 nM

* * *

Target: Transcription initiation factor TFIID subunit 1-like (Homo sapiens)
Sequence (Q8IZX4 whole entry, the tested form may be a part): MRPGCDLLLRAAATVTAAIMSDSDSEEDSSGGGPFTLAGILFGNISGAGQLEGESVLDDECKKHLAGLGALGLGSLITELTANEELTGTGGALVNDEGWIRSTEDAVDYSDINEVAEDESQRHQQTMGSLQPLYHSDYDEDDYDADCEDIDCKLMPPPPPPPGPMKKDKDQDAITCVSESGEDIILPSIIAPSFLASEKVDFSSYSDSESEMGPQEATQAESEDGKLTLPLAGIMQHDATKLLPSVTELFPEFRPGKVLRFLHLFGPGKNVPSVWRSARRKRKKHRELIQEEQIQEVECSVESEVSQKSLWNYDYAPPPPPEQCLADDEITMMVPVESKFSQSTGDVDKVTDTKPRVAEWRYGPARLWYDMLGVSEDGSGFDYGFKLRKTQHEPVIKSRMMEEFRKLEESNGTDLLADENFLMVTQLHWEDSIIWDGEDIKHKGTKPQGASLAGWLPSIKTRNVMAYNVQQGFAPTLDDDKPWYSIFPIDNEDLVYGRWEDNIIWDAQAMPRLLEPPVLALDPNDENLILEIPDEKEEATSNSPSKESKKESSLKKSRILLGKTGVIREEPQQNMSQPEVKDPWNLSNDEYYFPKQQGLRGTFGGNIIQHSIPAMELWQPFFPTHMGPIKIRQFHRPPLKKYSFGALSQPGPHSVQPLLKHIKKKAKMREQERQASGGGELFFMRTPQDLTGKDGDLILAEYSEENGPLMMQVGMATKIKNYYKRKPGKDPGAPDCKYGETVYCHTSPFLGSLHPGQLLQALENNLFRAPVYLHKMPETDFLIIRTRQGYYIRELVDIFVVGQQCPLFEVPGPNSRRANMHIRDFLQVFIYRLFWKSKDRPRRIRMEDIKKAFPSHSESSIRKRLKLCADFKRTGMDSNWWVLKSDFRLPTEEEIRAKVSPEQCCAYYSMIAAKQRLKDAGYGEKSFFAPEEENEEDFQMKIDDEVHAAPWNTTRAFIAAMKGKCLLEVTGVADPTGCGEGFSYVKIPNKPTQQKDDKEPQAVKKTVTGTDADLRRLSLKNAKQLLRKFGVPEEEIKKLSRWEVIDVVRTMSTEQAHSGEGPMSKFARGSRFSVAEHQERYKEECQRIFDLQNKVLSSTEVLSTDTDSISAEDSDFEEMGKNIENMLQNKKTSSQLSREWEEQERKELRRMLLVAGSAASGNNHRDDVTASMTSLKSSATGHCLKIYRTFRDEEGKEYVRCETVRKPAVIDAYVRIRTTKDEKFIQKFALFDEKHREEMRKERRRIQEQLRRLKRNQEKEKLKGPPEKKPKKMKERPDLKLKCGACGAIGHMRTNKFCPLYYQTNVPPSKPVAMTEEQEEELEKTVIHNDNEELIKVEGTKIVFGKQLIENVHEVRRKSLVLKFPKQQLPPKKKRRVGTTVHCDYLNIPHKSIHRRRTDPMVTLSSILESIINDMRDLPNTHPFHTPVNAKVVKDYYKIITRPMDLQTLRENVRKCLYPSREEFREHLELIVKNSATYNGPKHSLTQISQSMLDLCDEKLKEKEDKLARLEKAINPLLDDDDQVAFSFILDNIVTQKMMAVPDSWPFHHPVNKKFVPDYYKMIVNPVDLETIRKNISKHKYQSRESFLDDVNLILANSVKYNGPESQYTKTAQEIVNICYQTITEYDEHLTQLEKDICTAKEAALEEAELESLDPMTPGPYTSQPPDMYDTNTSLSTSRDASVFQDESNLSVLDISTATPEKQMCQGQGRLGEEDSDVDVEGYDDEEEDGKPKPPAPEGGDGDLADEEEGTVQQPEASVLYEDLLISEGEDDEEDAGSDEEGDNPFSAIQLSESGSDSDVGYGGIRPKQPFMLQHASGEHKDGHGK
Assay: Binding affinity to recombinant human full length DNA-tagged TAF1L bromodomain 2 (1523 to 1654 residues) expressed in bacterial expression system by bromoscan assay
readout.type: Kd (nM)
The reply should be a number in nM, with the unit left off.

IN: Item C=CCCn1cc(-c2cc(C(=O)N3CCOCC3)cc3c2ncn3C)c2cc[nH]c2c1=O : provide Kd
OUT: 5

* * *

Assay: Kinetic solubility of the compound
Type: physicochemical
Details: read-out: Kinetic_solubility
readout.type: solubility kinetic
Write the numeric value and append its unit.

IN: Report measured solubility kinetic; entry is C=CCCn1cc(-c2cc(C(=O)N3CCOCC3)cc3c2ncn3C)c2cc[nH]c2c1=O
OUT: 121 µM

* * *

Target: Bromodomain-containing protein 4 (Homo sapiens)
Test: Inhibition of recombinant His-tagged BRD4 bromodomain 2 (unknown origin) after 10 mins by TR-FRET assay
readout.type: IC50 (µM)
Write it as a number; the unit µM goes unstated.

IN: Answer briefly: IC50 recorded on Bromodomain-containing protein 4 (Homo sapiens) for C=CCCn1cc(-c2cc(C#N)cc(C(=O)N3CCOCC3)c2)c2cc[nH]c2c1=O
OUT: 5

IN: System Bromodomain-containing protein 4 (Homo sapiens). Read-out IC50. Item C=CCCn1cc(-c2cc(C(=O)N3CCOCC3)c3ncn(CC)c3c2)c2cc[nH]c2c1=O . Report value.
OUT: 6.8

IN: Enter recorded IC50 with Bromodomain-containing protein 4 (Homo sapiens) for C=CCCn1cc(-c2cc(OC(F)F)cc(C(=O)N3CCOCC3)c2)c2cc[nH]c2c1=O here.
OUT: 9

IN: Provide the reported IC50 (system: Bromodomain-containing protein 4 (Homo sapiens)) for C=CCCn1cc(-c2cccc(C(=O)N(C)C3CCCCC3)c2)c2cc[nH]c2c1=O
OUT: 2.4

IN: Enter IC50 (test system Bromodomain-containing protein 4 (Homo sapiens)) for C=CCCn1cc(-c2cnc(OCC)c(C(=O)N3CCOCC3)c2)c2cc[nH]c2c1=O
OUT: 7.6

IN: Report its IC50 with Bromodomain-containing protein 4 (Homo sapiens) as the test system: C=CCCn1cc(-c2cc(C(=O)N3CCOCC3)c3c(c2)ncn3CC)c2cc[nH]c2c1=O
OUT: 1

IN: Quote Bromodomain-containing protein 4 (Homo sapiens) IC50 for entry C=CCCn1cc(-c2cc(C(=O)N3CCOCC3)c3nc[nH]c3c2)c2cc[nH]c2c1=O .
OUT: 4.4

IN: Supply IC50 measured with Bromodomain-containing protein 4 (Homo sapiens) for C=CCCn1cc(-c2cc(C(=O)N3CCOCC3)c3ncn(C)c3c2)c2cc[nH]c2c1=O .
OUT: 12

IN: Lab note: Bromodomain-containing protein 4 (Homo sapiens) assay, enter IC50 for C=CCCn1cc(-c2cnc(OC)c(C(=O)N3CCOCC3)c2)c2cc[nH]c2c1=O here
OUT: 9.6

IN: System Bromodomain-containing protein 4 (Homo sapiens). Read-out IC50. Item C=CCCn1cc(-c2cc(C(=O)N3CCOCC3)c3c(c2)ncn3C)c2cc[nH]c2c1=O . Report value.
OUT: 4.4

IN: Param request: IC50 | system Bromodomain-containing protein 4 (Homo sapiens) | item C=CCCn1cc(-c2cccc(C(=O)N3CCN(CCO)CC3)c2)c2cc[nH]c2c1=O
OUT: 5

IN: Under Bromodomain-containing protein 4 (Homo sapiens), report IC50 for C=CCCn1cc(-c2cc(F)c(F)c(C(=O)N3CCOCC3)c2)c2cc[nH]c2c1=O
OUT: 17

* * *

Molecular target: UniProt:Q92793
Assay: Inhibition of recombinant His-tagged CBP (unknown origin) after 10 mins by TR-FRET assay
pIC50: −log10 of the molar value.
readout.type: pIC50

IN: GET pIC50 where system = UniProt:Q92793 and item = C=CCCn1cc(-c2cccc(C(=O)N3CCN(CCO)CC3)c2)c2cc[nH]c2c1=O
OUT: < 4.70

IN: Fill in: pIC50 on UniProt:Q92793, entry C=CCCn1cc(-c2cccc(C(=O)N(C)C3CCCCC3)c2)c2cc[nH]c2c1=O
OUT: < 4.70

* * *

Target: Chromatin remodeling regulator CECR2 (Homo sapiens, UniProt Q9BXF3)
Sequence (Q9BXF3 whole entry): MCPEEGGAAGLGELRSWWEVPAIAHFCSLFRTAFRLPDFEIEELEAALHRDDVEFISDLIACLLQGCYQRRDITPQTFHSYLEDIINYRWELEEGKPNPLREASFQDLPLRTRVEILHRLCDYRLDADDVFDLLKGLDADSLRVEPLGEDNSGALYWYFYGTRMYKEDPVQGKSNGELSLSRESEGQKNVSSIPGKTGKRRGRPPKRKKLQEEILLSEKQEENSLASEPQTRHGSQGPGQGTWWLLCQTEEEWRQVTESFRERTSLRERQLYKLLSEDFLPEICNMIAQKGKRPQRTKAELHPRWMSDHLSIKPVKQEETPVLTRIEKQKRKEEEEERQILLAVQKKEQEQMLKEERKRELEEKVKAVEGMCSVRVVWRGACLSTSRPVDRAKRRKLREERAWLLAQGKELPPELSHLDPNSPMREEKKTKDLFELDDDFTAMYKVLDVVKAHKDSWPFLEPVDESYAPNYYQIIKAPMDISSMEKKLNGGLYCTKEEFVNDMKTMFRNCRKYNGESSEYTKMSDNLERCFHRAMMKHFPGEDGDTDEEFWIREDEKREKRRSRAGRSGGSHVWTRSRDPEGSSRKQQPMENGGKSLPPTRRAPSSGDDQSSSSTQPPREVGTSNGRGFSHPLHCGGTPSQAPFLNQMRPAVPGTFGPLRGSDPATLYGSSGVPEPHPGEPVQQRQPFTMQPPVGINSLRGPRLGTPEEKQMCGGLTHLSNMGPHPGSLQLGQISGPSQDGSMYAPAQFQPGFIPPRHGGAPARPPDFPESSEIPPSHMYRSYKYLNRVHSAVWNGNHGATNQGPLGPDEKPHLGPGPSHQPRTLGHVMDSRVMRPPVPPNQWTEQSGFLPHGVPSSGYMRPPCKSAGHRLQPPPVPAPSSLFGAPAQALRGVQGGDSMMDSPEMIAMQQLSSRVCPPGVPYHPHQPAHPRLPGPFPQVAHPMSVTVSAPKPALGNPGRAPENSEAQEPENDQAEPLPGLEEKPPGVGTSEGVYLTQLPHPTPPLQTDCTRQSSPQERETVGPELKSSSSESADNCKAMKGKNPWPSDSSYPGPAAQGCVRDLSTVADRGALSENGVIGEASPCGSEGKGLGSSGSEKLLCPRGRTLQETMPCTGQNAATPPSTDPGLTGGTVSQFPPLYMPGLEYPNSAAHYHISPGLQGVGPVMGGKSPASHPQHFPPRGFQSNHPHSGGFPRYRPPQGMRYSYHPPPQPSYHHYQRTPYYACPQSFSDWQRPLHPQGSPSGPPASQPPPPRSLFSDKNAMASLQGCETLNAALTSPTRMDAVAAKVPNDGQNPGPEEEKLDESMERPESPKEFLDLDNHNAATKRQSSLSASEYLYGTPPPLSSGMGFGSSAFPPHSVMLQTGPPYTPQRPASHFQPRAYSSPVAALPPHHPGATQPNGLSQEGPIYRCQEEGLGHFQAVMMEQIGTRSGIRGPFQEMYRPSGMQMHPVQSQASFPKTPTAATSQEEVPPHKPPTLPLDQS
Test: Inhibition of recombinant His-tagged CECR2 (unknown origin) after 10 mins by TR-FRET assay
pIC50: −log10 of the molar value.
Output 1 (yes) for pIC50 not less than 6; output 0 (no) otherwise.

IN: Please check the record C=CCCn1cc(-c2cc(C(=O)N3CCOCC3)c3ncn(C)c3c2)c2cc[nH]c2c1=O and state if its pIC50 is at or above 6.
OUT: 1 (yes)

IN: Is it the case that C=CCCn1cc(-c2cc(C(=O)N3CCOCC3)c3c(c2)ncn3C)c2cc[nH]c2c1=O has pIC50 reaching or exceeding 6?
OUT: 1 (yes)

IN: Is pIC50 for C=CCCn1cc(-c2cc(C(=O)N3CCOCC3)c3c(c2)ncn3CC)c2cc[nH]c2c1=O at or above 6?
OUT: 0 (no)

IN: Test whether the molecule C=CCCn1cc(-c2cccc(C(=O)N(C)C3CCCCC3)c2)c2cc[nH]c2c1=O records pIC50 of 6 or higher.
OUT: 0 (no)

IN: Decide: is the reported value of pIC50 for C=CCCn1cc(-c2cnc(OCC)c(C(=O)N3CCOCC3)c2)c2cc[nH]c2c1=O equal to or greater than 6?
OUT: 1 (yes)

* * *

Molecular target: Transcription initiation factor TFIID subunit 1 (Homo sapiens)
Assay: Inhibition of recombinant His-tagged TAF1 bromodomain 2 (unknown origin) after 10 mins by TR-FRET assay
readout.type: IC50 (nM)
A number alone suffices; assume nM.

IN: // fetch IC50 for C=CCCn1cc(-c2cccc(C(=O)N(C)C3CCCCC3)c2)c2cc[nH]c2c1=O ; system: Transcription initiation factor TFIID subunit 1 (Homo sapiens)
OUT: 67

IN: Look up Transcription initiation factor TFIID subunit 1 (Homo sapiens) data: IC50 of C=CCCn1cc(-c2cnc(OC)c(C(=O)N3CCOCC3)c2)c2cc[nH]c2c1=O , then report it.
OUT: 7

IN: State, for Transcription initiation factor TFIID subunit 1 (Homo sapiens), measured IC50 of the compound listed here: C=CCCn1cc(-c2cccc(C(=O)N3CCN(CCO)CC3)c2)c2cc[nH]c2c1=O
OUT: 83

IN: GET IC50 where system = Transcription initiation factor TFIID subunit 1 (Homo sapiens) and item = C=CCCn1cc(-c2cnc(OCC)c(C(=O)N3CCOCC3)c2)c2cc[nH]c2c1=O
OUT: 4

IN: Find the measured IC50 of C=CCCn1cc(-c2cc(C(=O)N3CCOCC3)c3c(c2)ncn3CC)c2cc[nH]c2c1=O with Transcription initiation factor TFIID subunit 1 (Homo sapiens) as test system.
OUT: 16

* * *

Target: Bromodomain-containing protein 4 (Homo sapiens, UniProt O60885)
Experiment: Inhibition of recombinant His-tagged BRD4 bromodomain 1 (unknown origin) after 10 mins by TR-FRET assay
readout.type: IC50 (µM)
Your answer is read as µM, so omit the unit and give the number.

IN: For Bromodomain-containing protein 4 (Homo sapiens, UniProt O60885), give IC50 of the listed molecule: C=CCCn1cc(-c2cc(F)c(F)c(C(=O)N3CCOCC3)c2)c2cc[nH]c2c1=O
OUT: 7.9

IN: // output IC50; input C=CCCn1cc(-c2cc(C(=O)N3CCOCC3)c3nc[nH]c3c2)c2cc[nH]c2c1=O ; system Bromodomain-containing protein 4 (Homo sapiens, UniProt O60885)
OUT: 2.3

IN: Please report the measured IC50 for C=CCCn1cc(-c2cc(C#N)cc(C(=O)N3CCOCC3)c2)c2cc[nH]c2c1=O tested on Bromodomain-containing protein 4 (Homo sapiens, UniProt O60885).
OUT: 1.8

IN: Param request: IC50 | system Bromodomain-containing protein 4 (Homo sapiens, UniProt O60885) | item C=CCCn1cc(-c2cc(C(=O)N3CCOCC3)c3c(c2)ncn3CC)c2cc[nH]c2c1=O
OUT: 2

IN: Given C=CCCn1cc(-c2cnc(OCC)c(C(=O)N3CCOCC3)c2)c2cc[nH]c2c1=O , report its IC50 on Bromodomain-containing protein 4 (Homo sapiens, UniProt O60885).
OUT: 6.3

IN: Give IC50 for this entry on Bromodomain-containing protein 4 (Homo sapiens, UniProt O60885): C=CCCn1cc(-c2cc(C(=O)N3CCOCC3)c3ncn(CC)c3c2)c2cc[nH]c2c1=O
OUT: 3.4

IN: Under Bromodomain-containing protein 4 (Homo sapiens, UniProt O60885), report IC50 for C=CCCn1cc(-c2cccc(C(=O)N(C)C3CCCCC3)c2)c2cc[nH]c2c1=O
OUT: 0.75
